Would you mind telling me the reported selectivity ratio of each entry?
assay: Therapeutic index, ratio of IC50 for human MRC5 cells to IC50 for human SK-N-MC cells; format: cell-based; conditions: MRC5 cells and SK-N-MC cells, read-out: Ratio IC50
One number for each entry.

Give selectivity ratio for each listed item.
1. CC(C)(C)c1ccc(/C(=N\NC(=S)Nc2ccccc2)c2ccccn2)cc1
2. CN(C)C(=S)N/N=C(\c1ccc(C(C)(C)C)cc1)c1ccccn1
3. CNC(=S)N/N=C(\c1ccc(OC)cc1)c1ccccn1
4. Cc1ccc(/C(=N\NC(=S)N(C)C)c2ccccn2)cc1

Result:
17
15
92
131

====

assay: Toxicity in intact human RBC assessed as methemoglobin formation using Fe(compound)2 complex at 25 uM after 3 hrs relative to untreated control; assay type: cell-based; details: erythrocyte
measurement.type: Activity

Consider the worked cases shown below.
{"smiles.notation": "S=C(N/N=C(\\c1ccccc1)c1ccccn1)Nc1ccccc1", "result.value": "Non-toxic"}
{"smiles.notation": "CN(C)C(=S)N/N=C(\\c1ccc(C(C)(C)C)cc1)c1ccccn1", "result.value": "Non-toxic"}
{"smiles.notation": "CCNC(=S)N/N=C(\\c1ccc(OC)cc1)c1ccccn1", "result.value": "Non-toxic"}
{"smiles.notation": "CNC(=S)N/N=C(\\c1ccc(OC)cc1)c1ccccn1", "result.value": "Non-toxic"}
{"smiles.notation": "CNC(=S)N/N=C(\\c1ccc(C)cc1)c1ccccn1", "result.value": "Non-toxic"}

Give Activity for each listed item.
1. COc1ccc(/C(=N\NC(N)=S)c2ccccn2)cc1
2. Cc1ccc(/C(=N\NC(N)=S)c2ccccn2)cc1

Result:
["Toxic", "Toxic"]

====

assay: Toxicity in human RBC lysates assessed as methemoglobin formation at 25 uM after 3 hrs relative to control; set-up: species or system Lysate; conditions: erythrocyte
measurement.type: Activity

Consider the worked cases shown below.
{"smiles.notation": "CNC(=S)N/N=C(\\c1ccccc1)c1ccccn1", "result.value": "Non-toxic"}
{"smiles.notation": "COc1ccc(/C(=N\\NC(N)=S)c2ccccn2)cc1", "result.value": "Non-toxic"}
{"smiles.notation": "Cc1ccc(/C(=N\\NC(N)=S)c2ccccn2)cc1", "result.value": "Toxic"}
{"smiles.notation": "S=C(N/N=C(\\c1ccccc1)c1ccccn1)Nc1ccccc1", "result.value": "Non-toxic"}
{"smiles.notation": "CC(C)(C)c1ccc(/C(=N\\NC(N)=S)c2ccccn2)cc1", "result.value": "Non-toxic"}
{"smiles.notation": "CNC(=S)N/N=C(\\c1ccc(OC)cc1)c1ccccn1", "result.value": "Non-toxic"}
{"smiles.notation": "CNC(=S)N/N=C(\\c1ccc(C(C)(C)C)cc1)c1ccccn1", "result.value": "Non-toxic"}
{"smiles.notation": "CC(C)(C)c1ccc(/C(=N\\NC(=S)Nc2ccccc2)c2ccccn2)cc1", "result.value": "Non-toxic"}
{"smiles.notation": "CNC(=S)N/N=C(\\c1ccc(C)cc1)c1ccccn1", "result.value": "Toxic"}
{"smiles.notation": "CCNC(=S)N/N=C(\\c1ccccc1)c1ccccn1", "result.value": "Non-toxic"}

Give Activity for each listed item.
1. NC(=S)N/N=C(\c1ccccc1)c1ccccn1
2. CCNC(=S)N/N=C(\c1ccc(OC)cc1)c1ccccn1

Result:
1: Non-toxic; 2: Non-toxic

====

assay: Induction of ascorbate oxidation in citrate buffer in presence of 10 uM Fe3+ at 1 to 60 uM; format: physicochemical
measurement.type: Activity

Consider the worked cases shown below.
{"smiles.notation": "NC(=S)N/N=C(\\c1ccccc1)c1ccccn1", "result.value": "Active"}
{"smiles.notation": "CN(C)C(=S)N/N=C(\\c1ccccc1)c1ccccn1", "result.value": "Not Active"}
{"smiles.notation": "COc1ccc(/C(=N\\NC(=S)N(C)C)c2ccccn2)cc1", "result.value": "Not Active"}
{"smiles.notation": "Cc1ccc(/C(=N\\NC(N)=S)c2ccccn2)cc1", "result.value": "Active"}
{"smiles.notation": "Cc1ccc(/C(=N\\NC(=S)N(C)C)c2ccccn2)cc1", "result.value": "Not Active"}

Give Activity for each listed item.
1. COc1ccc(/C(=N\NC(N)=S)c2ccccn2)cc1
2. CN(C)C(=S)NN=C(c1ccccn1)c1ccccn1
3. CN(C)C(=S)N/N=C(\c1ccc(C(C)(C)C)cc1)c1ccccn1
4. CC(C)(C)c1ccc(/C(=N\NC(N)=S)c2ccccn2)cc1

Result:
Active
Active
Not Active
Active

====

assay: Toxicity in intact human RBC assessed as methemoglobin formation at 25 uM after 3 hrs relative to untreated control; type: cell-based; conditions: erythrocyte
measurement.type: Activity

Consider the worked cases shown below.
{"smiles.notation": "NC(=S)N/N=C(\\c1ccccc1)c1ccccn1", "Activity": "Toxic"}
{"smiles.notation": "CCNC(=S)N/N=C(\\c1ccc(C)cc1)c1ccccn1", "Activity": "Non-toxic"}
{"smiles.notation": "Cc1ccc(/C(=N\\NC(=S)N(C)C)c2ccccn2)cc1", "Activity": "Non-toxic"}
{"smiles.notation": "Cc1ccc(/C(=N\\NC(N)=S)c2ccccn2)cc1", "Activity": "Toxic"}

Give Activity for each listed item.
1. S=C(N/N=C(\c1ccccc1)c1ccccn1)Nc1ccccc1
2. CN(C)C(=S)N/N=C(\c1ccc(C(C)(C)C)cc1)c1ccccn1
3. COc1ccc(/C(=N\NC(=S)N(C)C)c2ccccn2)cc1
4. CCNC(=S)N/N=C(\c1ccc(C(C)(C)C)cc1)c1ccccn1
5. CNC(=S)N/N=C(\c1ccc(C(C)(C)C)cc1)c1ccccn1
6. CC(C)(C)c1ccc(/C(=N\NC(=S)Nc2ccccc2)c2ccccn2)cc1
7. Cc1ccc(/C(=N\NC(=S)Nc2ccccc2)c2ccccn2)cc1

Result:
Non-toxic
Non-toxic
Non-toxic
Non-toxic
Non-toxic
Non-toxic
Non-toxic

Query: Which Activity reading was recorded for the compound `CCNC(=S)N/N=C(\c1ccccc1)c1ccccn1` ?
Result: Non-toxic

====

experiment: Therapeutic index, ratio of IC50 for human MRC5 cells to IC50 for human SK-N-MC cells; format: cell-based; settings: MRC5 cells and SK-N-MC cells, read-out: Ratio IC50
Would you mind telling me the reported selectivity ratio of each entry?
Give bare numbers.

{"smiles.notation": "COc1ccc(/C(=N\\NC(=S)N(C)C)c2ccccn2)cc1", "selectivity ratio": 66}
{"smiles.notation": "CN(C)C(=S)N/N=C(\\c1ccccc1)c1ccccn1", "selectivity ratio": 202}
{"smiles.notation": "COc1ccc(/C(=N\\NC(=S)Nc2ccccc2)c2ccccn2)cc1", "selectivity ratio": 45}

Query: Which selectivity ratio reading was recorded for the compound `CNC(=S)N/N=C(\c1ccc(C)cc1)c1ccccn1` ?
Result: 141

====

assay: Therapeutic index, ratio of IC50 for human MRC5 cells to IC50 for human SK-N-MC cells; format: cell-based; conditions: MRC5 cells and SK-N-MC cells, read-out: Ratio IC50
Lab note: compare selectivity ratio against 60. Equal or greater, write Satisfied. Smaller, write Not satisfied.

Below, 5 molecules whose answers are already recorded.
{"smiles.notation": "Cc1ccc(/C(=N\\NC(=S)Nc2ccccc2)c2ccccn2)cc1", "label": "Satisfied"}
{"smiles.notation": "CCNC(=S)N/N=C(\\c1ccc(C(C)(C)C)cc1)c1ccccn1", "label": "Satisfied"}
{"smiles.notation": "CNC(=S)N/N=C(\\c1ccccc1)c1ccccn1", "label": "Satisfied"}
{"smiles.notation": "CC(C)(C)c1ccc(/C(=N\\NC(N)=S)c2ccccn2)cc1", "label": "Not satisfied"}
{"smiles.notation": "S=C(N/N=C(\\c1ccccc1)c1ccccn1)Nc1ccccc1", "label": "Not satisfied"}

Turning now to a further record.
Query: Decide: selectivity ratio of `Cc1ccc(/C(=N\NC(N)=S)c2ccccn2)cc1` >= 60?
Result: Satisfied

====

test: Therapeutic index, ratio of IC50 for human MRC5 cells to IC50 for human SK-N-MC cells; assay type: cell-based; details: MRC5 cells and SK-N-MC cells, read-out: Ratio IC50
measurement.type: selectivity ratio
Answers are plain numbers.

Consider the worked cases shown below.
{"smiles.notation": "CCNC(=S)N/N=C(\\c1ccccc1)c1ccccn1", "selectivity ratio": 106}
{"smiles.notation": "CCNC(=S)N/N=C(\\c1ccc(C)cc1)c1ccccn1", "selectivity ratio": 164}
{"smiles.notation": "CNC(=S)N/N=C(\\c1ccc(C(C)(C)C)cc1)c1ccccn1", "selectivity ratio": 164}

Note: attention shifts to another entry.
Query: Which selectivity ratio reading was recorded for the compound `CCNC(=S)N/N=C(\c1ccc(OC)cc1)c1ccccn1` ?
Result: 102
